- test: gradient 5% acetonitrile 3 min, to 50% in 2 min, to 85% in 15 min, held 3 min, 100 µL/min
- condition_info: column: Zorbax Extend-C18 2.1 x 50 mm; eluents: water / acetonitrile, 0.1% formic acid
Assign classes using reported RP-LC retention time values and the ranges category 1 (below 700 s), category 2 (700 s to below 800 s), category 3 (800 s or more), please.

Request: Kindly identify the class of COc1cccc(-n2c(N3CCCC(C(=O)NCCC4=CCCCC4)C3)nc3ccsc3c2=O)c1 (centres undefined) .
Response: category 3

Request: Please let me know in which category the item COCCn1cc(CCNC(=O)c2cc(F)cc(F)c2)c2cccnc21 belongs.
Response: category 2

Request: Into which category would you place Cn1cc(-c2cc3n(n2)CCC(=O)N3CC(=O)NCCCN2CCCCC2)c2ccccc21 ?
Response: category 1

Request: Lab note: sort Cc1cccc(NC(=O)CN2C(=O)C3CCCCN3c3ccc(C(=O)N4CCCC4)cc32)c1 (centres undefined) into the matching RP-LC retention time band.
Response: category 3

Request: Using the reported RP-LC retention time, which band applies to CCC1CCCCN1CCCNC(=O)CCc1cc2ccccc2[nH]c1=O (centres undefined) ?
Response: category 1

Request: Input Cc1ncsc1C1N(C2CCN(C(=O)Nc3ccccc3)CC2)C(=O)C12CCCC2 (centres undefined) ; output its category
Response: category 2

* * *

- test: gradient 5% acetonitrile 3 min, to 50% in 2 min, to 85% in 15 min, held 3 min, 100 µL/min
- condition_info: column: Zorbax Extend-C18 2.1 x 50 mm; eluents: water / acetonitrile, 0.1% formic acid
Label MET for high-side RP-LC retention time (at or above 800 s) and NOT MET for low-side RP-LC retention time (below it).

Request: hey, is RP-LC retention time for this one >= 800 s? CCCc1noc(C2CCCCN2CC(=O)Nc2ccc(F)c(Cl)c2)n1 (centres undefined)
Response: MET

Request: In plain terms: is recorded RP-LC retention time at least 800 s for Cc1ccccc1CNC(=O)C1(c2ccc(NS(C)(=O)=O)cc2)CCCCC1 ?
Response: MET

Request: Entry CC(=O)N1CCC2(CC1)N(CC1CC1)C(=O)CS2=O (centres undefined) : is its RP-LC retention time no less than 800 s?
Response: NOT MET

Request: Threshold query (RP-LC retention time >= 800 s) on COCCCN1CN=C(Nc2nc(C)c3cc(C)ccc3n2)NC1
Response: NOT MET

Request: Would you say Cn1cc(C(=O)N2CCCC(c3nnc4n3CCN(C3CCCC3)C4)C2)cn1 (centres undefined) shows RP-LC retention time at minimum 800 s?
Response: NOT MET

Request: Reported RP-LC retention time reaches at least 800 s for CCn1c(=O)c(N2CCC(C(=O)NCCc3ccco3)CC2)nc2cccnc21 ?
Response: MET

Request: Answer whether RP-LC retention time of COc1ccc2[nH]cc(CCNC(=O)c3ccc(N4CCCC4)c(S(=O)(=O)N4CCCC4)c3)c2c1 is greater than or equal to 800 s.
Response: MET

Request: Please tell me: is the molecule O=S(=O)(c1cccc(C(F)(F)F)c1)N1CCN(c2cnn3cnnc3c2)CC1 at or over 800 s in terms of RP-LC retention time?
Response: NOT MET

Request: Hello, I need to know if COCC(=O)N(CC(=O)N1CCc2sccc2C1COc1ccc(Cl)c(C)c1)C1CC1 (centres undefined) has measured RP-LC retention time not below 800 s. Thanks!
Response: MET

Request: Kindly determine if RP-LC retention time recorded for COc1ccc(CNC(=O)c2ccc3c(c2)nc2n3CCN(c3ccccc3)C2=O)cc1 is above or exactly 800 s.
Response: NOT MET

Request: Quick check, RP-LC retention time >= 800 s? CSc1ccc(CNC(=O)COc2nc(C)nc3ccccc23)cc1
Response: NOT MET

Request: Check if RP-LC retention time >= 800 s (inclusive). Item: COc1ccc(S(=O)(=O)N2CCC(Cc3nncn3-c3ccccc3)CC2)cc1
Response: NOT MET

Request: Evaluate CCc1nc2cc(N3CCC(C(=O)Nc4ccc(OC)cc4OC)CC3)cnc2nc1CC : RP-LC retention time at minimum 800 s?
Response: MET

Request: Quick check, RP-LC retention time >= 800 s? CS(=O)(=O)N1CC(C(=O)Nc2ccc3c(c2)OCCO3)C2(CCCCC2)C1 (centres undefined)
Response: MET

Request: I'd appreciate it if you could say whether COc1ccc(C(=O)NC2CCN(c3cc(-c4ccc(Cl)cc4)[nH]n3)C2)cc1OC (centres undefined) has RP-LC retention time at least equal to 800 s.
Response: NOT MET

Request: Given CCC1Oc2ccc(C)cc2N(CC(=O)NCCCN2CC(C)CC(C)C2)C1=O (centres undefined) , state whether its RP-LC retention time is at least 800 s.
Response: NOT MET

Request: Given O=C(CN1C(=O)CCCc2cc(S(=O)(=O)N3CCCCCC3)ccc21)Nc1ccccc1F , state whether its RP-LC retention time is at least 800 s.
Response: MET

Request: Hello, I need to know if CCCn1c(=O)c2cc(C(=O)NCc3ccc(F)cc3Cl)nn2c2ccccc21 has measured RP-LC retention time not below 800 s. Thanks!
Response: MET

* * *

- test: gradient 5% acetonitrile 3 min, to 50% in 2 min, to 85% in 15 min, held 3 min, 100 µL/min
- condition_info: column: Zorbax Extend-C18 2.1 x 50 mm; eluents: water / acetonitrile, 0.1% formic acid
Would you kindly list RP-LC retention time for each of these compounds?
All answers are understood in s, so give the number only.

Request: Name the reported RP-LC retention time value associated with the compound Fc1ccc(C2Cn3nnc(-c4nc(-c5cccc(F)c5)no4)c3CO2)cc1 (stereo not given)
Response: 1150

Request: Record request: RP-LC retention time value, item O=C(NCc1ccc(F)c(Cl)c1)c1nnn(-c2ccccc2)c1-c1ccccn1
Response: 872

Request: Look at this compound and give its reported RP-LC retention time. Cc1nnc2c(=O)n(CC(=O)N3CCCC(C)C3)c3cccnc3n12 (stereo not given)
Response: 668

Request: Given the compound O=C(Nc1nncs1)C1CCN(C(=O)c2ccccc2F)CC1 , what is its reported RP-LC retention time?
Response: 641

Request: Would you kindly share the measured RP-LC retention time for O=C(NC1CC1)c1c2c(nc3ccc(F)cc13)CCC2 ?
Response: 650

Request: What measured RP-LC retention time goes with COc1ccccc1N1CCN(Cc2nc3nc(C)cc(N4CCCC4)n3n2)CC1 ?
Response: 606

Request: Could you share which RP-LC retention time value was measured for CCNc1cc(N2CCC(CCC(=O)NCc3ccc(Cl)cc3)CC2)ncn1 ?
Response: 585

Request: Which RP-LC retention time is reported for this compound? O=C(c1cc(S(=O)(=O)N2CCCC(C(=O)N3CCc4ccccc4C3)C2)c[nH]1)N1CCCC1 (stereo not given)
Response: 808

Request: RP-LC retention time for Cc1cccc(-c2noc(Cn3cnc4c(oc5ccccc54)c3=O)n2)c1 ?
Response: 996

Request: Quick check: RP-LC retention time of c1cc(OCc2ccc(CC3CCN(C4CCOCC4)CC3)cc2)ccn1 ?
Response: 548

Request: Which RP-LC retention time reading was recorded for the compound CCOC(=O)c1cnc(Nc2nc(C)c3cc(C)cc(C)c3n2)nc1C ?
Response: 657

Request: Item CCN(CC)C(=O)C1CCCN1S(=O)(=O)c1cc2c(cc1C)NC(=O)C(C)O2 (stereo not given) has what recorded RP-LC retention time?
Response: 714

Request: Fill in: RP-LC retention time of CCOC(=O)c1ccc(Nc2c(CC)c(C)nc3nc(-c4ccccc4)nn23)cc1 is ___
Response: 990

Request: Need RP-LC retention time, item COCc1noc([C@@H]2CN(C(=O)c3noc(C)c3COC)C[C@H]2C(N)=O)n1
Response: 625

Request: Requested read-out: RP-LC retention time. Entry: CCN1C(=O)CN(C(=O)c2ccco2)CC12CCOCC2
Response: 610

Request: Fill in: RP-LC retention time of CCOC(=O)C1CCC(CNC(=O)Nc2ccc3nc(N4CCN(C)CC4)cc(C)c3c2)CC1 (stereo not given) is ___
Response: 584

Request: Query: RP-LC retention time; subject: O=c1n(Cc2cc(F)cc(F)c2)nc2c(S(=O)(=O)N3CCCC3)cccn12
Response: 861

Request: Which measured RP-LC retention time value corresponds to COc1ccc2c(c1)CCc1sc(NC(=O)c3cccc(Br)c3)nc1-2 ?
Response: 1240

Request: Query (compound): Cn1c(=O)n([C@H]2CCCN(S(=O)(=O)Cc3ccccc3)C2)c2ncccc21 ; field requested: RP-LC retention time
Response: 827

Request: Would you kindly share the measured RP-LC retention time for Cc1nn(CC(=O)NC(C)(C)C)c(=O)c2c(C)n(-c3ccccc3)nc12 ?
Response: 768

Attribution: the METLIN SMRT retention time set (Domingo-Almenara et al. 2019)
